System: RAW-Dual (murine macrophage reporter line)
protocol_text: IRF reporter (Lucia luciferase) activity fold change vs agonist alone; higher = enhanced IRF activity
protocol_conditions: modulator concentration 10 µM; agonist: MPLA […]
measure_name: IRF reporter

# compound, value_reported
records = [
    ("CCOC(N)=O", 1.02),
    ("CN(C)[C@@H](CCOc1cccc2ccccc12)c1ccccc1.Cl", 0.854),
    ("Oc1ccc(N=Cc2ccccc2)cc1", 1.58),
    ("COc1ccc(C(=O)C=Cc2cc(OC)c(OC)c(OC)c2)c(O)c1", 0.0398),
    ("CCCCc1nc(Cl)c(CO)n1Cc1ccc(-c2ccccc2-c2nnn[nH]2)cc1 [Prestw-1433]", 1.32),
    ("CC1(C)CC(=O)C=C(Nc2ccc(Br)c(Cl)c2)C1", 1.08),
    ("CCC(=O)Nc1ccc(NC(=O)c2ccc([N+](=O)[O-])cc2)cc1", 1.12),
    ("O=C(C=Cc1cc([N+](=O)[O-])ccc1O)c1ccc(Cl)cc1", 1.25),
    ("CCOC(=O)OC(C)OC1=C(C(=O)Nc2ccccn2)N(C)S(=O)(=O)c2ccccc21 (stereo not drawn)", 1.32),
    ("CC1(C)Cc2ccccc2C(=C(C#N)C#N)N1", 1.5),
    ("Cc1ccc(C2(c3ccc(C)cc3)CC2C(=O)Nc2ccccc2)cc1 (stereo not drawn)", 0.654),
    ("CC(C(=O)O)c1ccc2c(c1)Cc1cccnc1O2 (stereo not drawn)", 1.15),
    ("CC(O)(P(=O)(O)O)P(=O)(O)O", 1.26),
    ("O=C(NN=Cc1c(Br)sc2ccccc12)c1cccc(Cl)c1", 1.49),
    ("CC(=O)N1CCN=C1SCc1cccc(C(F)(F)F)c1", 0.88),
    ("Cc1cc(=O)[nH]c(=S)[nH]1", 1.01),
    ("Cn1ccc(C(=O)Nc2nc(C(C)(C)C)cs2)n1", 1.57),
    ("COc1cccc(-c2cc(C(=O)N3CCC(Oc4cc(C)n(C)c(=O)c4)CC3)n(C)n2)c1", 0.938),
]

---

Tested on: RAW-Dual (murine macrophage reporter line)
protocol_text: viability score (confluency relative to resting cells, overnight) (fraction); higher = more viable, active = viable (0.7 or more)
protocol_conditions: modulator concentration 10 µM
Below, each of the compounds is paired with its reported viability score value.
measure_name: viability score

# compound, target_under_test, value_reported
records = [
    ("CNC(=O)c1ccccc1Sc1ccc2c(/C=C/c3ccccn3)n[nH]c2c1", "RAW-Dual (murine macrophage reporter line)", 0.897),
    ("COc1ccccc1N1CCN(CC(O)COc2cccc3ccccc23)CC1 (centres undefined)", "RAW-Dual (murine macrophage reporter line)", 0.967),
    ("COC(=O)C1=CN(CC2CCCO2)C=C(C(=O)OC)C1c1ccccc1Br (centres undefined)", "RAW-Dual (murine macrophage reporter line)", 0.726),
    ("O=C1CCCc2[nH]ccc21", "RAW-Dual (murine macrophage reporter line)", 0.999),
]

---

System: RAW-Dual (murine macrophage reporter line)
protocol_text: NF-kB reporter (SEAP) activity fold change vs agonist alone; higher = enhanced NF-kB activity
protocol_conditions: modulator concentration 10 µM; agonist: MPLA […]

# smiles_code, NF-kB reporter
measured = [
    ("CC(=NN1CCN(Cc2cccc3ccccc23)CC1)c1ccc(Br)cc1", 1.08),
    ("COC(=O)Nc1nc2cc(C(=O)c3ccccc3)ccc2[nH]1", 1.31),
    ("COc1ccc(-c2cc(CNC(=O)c3c(F)cccc3F)no2)cc1", 0.744),
    ("N#Cc1nc(-c2ccc(COc3ccccc3)o2)oc1N1CCc2ccccc2C1", 0.896),
    ("CC(=O)Nc1ccc(C(=O)CSc2nnc[nH]2)cc1", 1.01),
    ("CC#C[C@]1(O)CC[C@H]2[C@@H]3CCC4=CC(=O)CCC4=C3[C@@H](c3ccc(N(C)C)cc3)C[C@@]21C", 1.39),
    ("NC(=O)CC[C@@H](N)C(=O)O", 0.953),
    ("C=CCNC(=O)CN(Cc1ccccc1)S(=O)(=O)c1ccc(OC)c(OC)c1", 0.946),
]

---

Below, each of the compounds is paired with its reported IRF reporter value.
Test system: RAW-Dual (murine macrophage reporter line)
protocol_text: IRF reporter (Lucia luciferase) activity fold change vs agonist alone; higher = enhanced IRF activity
protocol_conditions: modulator concentration 10 µM; agonist: 3'3'-cGAMP 10 ug/mL

# compound, IRF reporter
data = [
    ("CC1CN(C2=NC(=O)C(=Cc3ccc(-c4ccccc4Cl)o3)S2)CC(C)O1 (stereo not given)", 0.813),
    ("C[C@@H]1CCN(C(=O)CC#N)C[C@@H]1N(C)c1ncnc2[nH]ccc12", 0.337),
    ("C[C@H](Nc1ncnc2[nH]cnc12)c1cc2cccc(Cl)c2c(=O)n1-c1ccccc1", 0.728),
    ("Cc1cc(-c2ccc(N=Cc3ccc(Cl)c([N+](=O)[O-])c3)c(C)c2)ccc1N=Cc1ccc(Cl)c([N+](=O)[O-])c1", 0.821),
    ("C=CCN1CCCC1CNC(=O)c1cc2nn[nH]c2cc1OC.Cl (stereo not given)", 0.917),
]

---

System: RAW-Dual (murine macrophage reporter line)
protocol_text: NF-kB reporter (SEAP) activity fold change vs agonist alone; higher = enhanced NF-kB activity
protocol_conditions: modulator concentration 10 µM; agonist: LPS 0.1 ug/mL
Below, each of the compounds is paired with its reported NF-kB reporter value.

# compound, target_under_test, NF-kB reporter
rows = [
    ("COc1ccc(C(=O)Nc2sc3c(c2C(N)=O)CCC(C)C3)c(OC)c1 (stereo not given)", "RAW-Dual (murine macrophage reporter line)", 1.08),
    ("CN(C)C(CNC(=O)NCc1ccc(Cl)cc1)c1ccc2c(c1)CCO2 (stereo not given)", "RAW-Dual (murine macrophage reporter line)", 1.17),
    ("Br.COc1ccc2c3c1O[C@H]1C[C@@H](O)C=C[C@@]31CCN(C)C2", "RAW-Dual (murine macrophage reporter line)", 1.03),
    ("O=C(Cc1ccc([N+](=O)[O-])cc1)NN=Cc1cccnc1", "RAW-Dual (murine macrophage reporter line)", 1.02),
    ("CCOC(=O)C1C(=O)NC(SCC(N)=O)=C(C#N)C1c1ccccc1OCC (stereo not given)", "RAW-Dual (murine macrophage reporter line)", 0.994),
    ("Cc1cccc(NC(=O)Cc2nnc(NC(=O)Nc3ccc(F)cc3)s2)c1", "RAW-Dual (murine macrophage reporter line)", 1.03),
    ("Cc1ccc(S(=O)(=O)N2CCC2)cc1", "RAW-Dual (murine macrophage reporter line)", 0.756),
    ("CCSc1nnc(NC(=O)Cc2ccc([N+](=O)[O-])cc2)s1", "RAW-Dual (murine macrophage reporter line)", 1.02),
    ("CCOC(=O)Cc1nnnn1C", "RAW-Dual (murine macrophage reporter line)", 1.02),
    ("CCC(=O)Nc1ccc(NC(=O)c2ccccc2OC)cc1", "RAW-Dual (murine macrophage reporter line)", 1.04),
    ("CCOC(=O)C1=C(CC)OC(N)=C(C#N)C1c1cccc(Oc2ccc(Cl)cc2)c1 (stereo not given)", "RAW-Dual (murine macrophage reporter line)", 0.662),
    ("CCCOc1ccc(C(=O)OCCN(CC)CC)cc1N.Cl", "RAW-Dual (murine macrophage reporter line)", 1.03),
    ("Cc1cc(C(=O)Nc2ccc(-n3nnn(C)c3=O)cc2)c(C)o1", "RAW-Dual (murine macrophage reporter line)", 1.05),
    ("Cl.Cl.O=C(O)COCCN1CCN([C@H](c2ccccc2)c2ccc(Cl)cc2)CC1", "RAW-Dual (murine macrophage reporter line)", 1.06),
    ("O=C(C1=C(O)C(=O)N(c2nccs2)C1c1ccccc1)c1cc2ccccc2o1 (stereo not given)", "RAW-Dual (murine macrophage reporter line)", 1.57),
    ("O=C(C=Cc1ccc(-c2cccc(Cl)c2)o1)c1ccc(Cl)cc1", "RAW-Dual (murine macrophage reporter line)", 0.746),
    ("CC(C)(O)C#Cc1ccccn1", "RAW-Dual (murine macrophage reporter line)", 0.93),
    ("CCC(=O)Nc1ccc(S(=O)(=O)N2CCSC(c3ccccc3C)CC2)c(C)c1 (stereo not given)", "RAW-Dual (murine macrophage reporter line)", 0.88),
    ("O=C(OC(=Cc1nccn1Cc1ccc(Cl)cc1)c1ccccc1)c1ccccc1", "RAW-Dual (murine macrophage reporter line)", 0.481),
    ("O=C(COc1cccc2ccccc12)NCc1ccncc1", "RAW-Dual (murine macrophage reporter line)", 1.1),
    ("Cc1cccc(C(C)C)c1NC(=O)c1ccccc1Br", "RAW-Dual (murine macrophage reporter line)", 0.956),
    ("Cc1ccc(Sc2ccccc2N2CCNCC2)c(C)c1", "RAW-Dual (murine macrophage reporter line)", 1.22),
    ("O=C(CCC(=O)Nc1ccccc1)NN=Cc1ccc(Cl)cc1", "RAW-Dual (murine macrophage reporter line)", 0.993),
    ("Nc1ccc(OCc2ccccc2)cc1", "RAW-Dual (murine macrophage reporter line)", 1.01),
    ("COc1cccc(-n2c(SCc3ccc(F)cc3)nc3c([nH]c4ccccc43)c2=O)c1", "RAW-Dual (murine macrophage reporter line)", 1.14),
    ("CNC(=NC#N)NCCSCc1nc[nH]c1C", "RAW-Dual (murine macrophage reporter line)", 0.94),
    ("COc1ccc(C2=CC(c3cc(OC)c(OC)c(OC)c3)n3ncnc3N2)cc1 (stereo not given)", "RAW-Dual (murine macrophage reporter line)", 1.08),
    ("COc1cc(C2Oc3cc(C4Oc5cc(O)cc(O)c5C(=O)C4O)ccc3OC2CO)ccc1O (stereo not given)", "RAW-Dual (murine macrophage reporter line)", 1.07),
    ("Cc1ccc(S(=O)(=O)n2nc(C)c(C)c2C)cc1C", "RAW-Dual (murine macrophage reporter line)", 1.11),
    ("CCCCC(=O)N(Cc1ccc(-c2ccccc2-c2nn[nH]n2)cc1)[C@H](C(=O)O)C(C)C", "RAW-Dual (murine macrophage reporter line)", 1.03),
    ("CCC1(CC)Cc2ccccc2C(CC(=O)N2CCOCC2)=N1.O=S(=O)(O)O", "RAW-Dual (murine macrophage reporter line)", 1.13),
    ("COC(CNS(=O)(=O)c1ccccc1Br)c1ccc(Cl)s1 (stereo not given)", "RAW-Dual (murine macrophage reporter line)", 1.08),
    ("O=c1oc2c3c4c(cc2cc1-c1nnc(-c2ccccc2)o1)CCCN4CCC3", "RAW-Dual (murine macrophage reporter line)", 1.04),
    ("CC(C)c1nc(CN(C)C(=O)N[C@@H](CCN2CCOCC2)C(=O)N[C@H](CC[C@H](Cc2ccccc2)NC(=O)OCc2cncs2)Cc2ccccc2)cs1", "RAW-Dual (murine macrophage reporter line)", 0.959),
    ("COc1ccc(NC(=O)c2cn(-c3cc(N4CCCCC4)ncn3)cn2)cc1F", "RAW-Dual (murine macrophage reporter line)", 1.13),
]
